Quick note: these are IC50 numbers for system: UniProtKB Q13370
Sequence (Q13370 whole entry): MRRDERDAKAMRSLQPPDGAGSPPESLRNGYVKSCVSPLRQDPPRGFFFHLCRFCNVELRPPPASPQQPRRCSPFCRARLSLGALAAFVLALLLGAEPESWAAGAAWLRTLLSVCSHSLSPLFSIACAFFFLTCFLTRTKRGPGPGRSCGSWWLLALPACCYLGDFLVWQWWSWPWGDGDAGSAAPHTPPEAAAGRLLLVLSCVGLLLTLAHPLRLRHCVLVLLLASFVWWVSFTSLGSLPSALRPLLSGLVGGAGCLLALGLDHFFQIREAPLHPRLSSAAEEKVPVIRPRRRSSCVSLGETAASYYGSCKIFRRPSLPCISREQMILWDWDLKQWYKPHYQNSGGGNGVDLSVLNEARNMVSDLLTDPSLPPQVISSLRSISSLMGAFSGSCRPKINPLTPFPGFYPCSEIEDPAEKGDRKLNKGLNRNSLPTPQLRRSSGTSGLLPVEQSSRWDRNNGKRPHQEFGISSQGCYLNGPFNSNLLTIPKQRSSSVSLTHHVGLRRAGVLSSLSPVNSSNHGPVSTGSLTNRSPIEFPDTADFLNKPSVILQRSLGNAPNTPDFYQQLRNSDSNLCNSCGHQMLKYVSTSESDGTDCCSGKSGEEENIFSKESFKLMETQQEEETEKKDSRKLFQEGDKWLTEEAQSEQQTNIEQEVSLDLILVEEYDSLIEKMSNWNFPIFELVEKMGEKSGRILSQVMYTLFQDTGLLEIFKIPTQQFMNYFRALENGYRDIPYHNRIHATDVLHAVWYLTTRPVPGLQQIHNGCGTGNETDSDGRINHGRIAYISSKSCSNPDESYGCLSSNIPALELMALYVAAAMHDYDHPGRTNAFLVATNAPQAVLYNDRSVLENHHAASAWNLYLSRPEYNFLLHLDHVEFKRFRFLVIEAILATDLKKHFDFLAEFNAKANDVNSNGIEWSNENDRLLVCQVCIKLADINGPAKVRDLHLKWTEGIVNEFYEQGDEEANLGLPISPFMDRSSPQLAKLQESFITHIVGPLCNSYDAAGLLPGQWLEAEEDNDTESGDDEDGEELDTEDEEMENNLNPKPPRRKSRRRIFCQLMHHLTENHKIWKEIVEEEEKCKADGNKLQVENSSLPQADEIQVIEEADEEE
Recorded endpoint: IC50 (µM)

A: C[C@@H]1OC(=O)NN=C1c1ccc(-n2ccc(C(F)(F)F)n2)c(C(F)(F)F)c1
B: C[C@@H]1OC(=O)NN=C1c1ccc(N2CC(F)(F)C2)c(C(F)(F)F)c1
C: C[C@@H]1OC(=O)NN=C1c1ccc(N2CC(C)(O)C2)c(C(F)(F)F)c1
Order them by IC50, ascending: the compounds above. In plain terms: list the labels in the order you were asked to.
C, B, A
(C: 0.009 µM, B: 0.023 µM, A: 0.383 µM)

Reference source for all entries: ChEMBL document CHEMBL5729281
